- assay-name: self-splicing fitness, log relative to wild type (ln ratio); higher = more splicing; Tetrahymena group I intron in knt gene, E. coli kanamycin selection, DiMSum; sequences stand for … in CUCUCU…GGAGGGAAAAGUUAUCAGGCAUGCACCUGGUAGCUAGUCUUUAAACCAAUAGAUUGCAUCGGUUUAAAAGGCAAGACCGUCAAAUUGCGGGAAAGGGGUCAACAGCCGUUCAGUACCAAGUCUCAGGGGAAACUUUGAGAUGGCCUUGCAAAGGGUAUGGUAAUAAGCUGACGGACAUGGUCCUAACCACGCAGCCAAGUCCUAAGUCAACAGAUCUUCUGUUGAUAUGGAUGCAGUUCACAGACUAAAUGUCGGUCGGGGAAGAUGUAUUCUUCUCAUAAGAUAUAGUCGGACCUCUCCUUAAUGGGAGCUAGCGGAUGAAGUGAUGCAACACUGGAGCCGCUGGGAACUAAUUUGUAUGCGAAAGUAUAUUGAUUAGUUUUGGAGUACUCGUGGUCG;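 note: selection with 25 µg/mL kanamycin versus none on LB agar overnight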
- condition-notes: 30 °C
Rule: self-splicing fitness (ln) under -2 gives f, otherwise t.

[[record]]
sequence_input = "UAACAGCAAUAUUACGCGCU"
group_label = "t"

[[record]]
sequence_input = "CGAUAGCAAUAUUACGUUCU"
group_label = "t"

[[record]]
sequence_input = "AUCAAGCAAUAUUACGCACG"
group_label = "f"

[[record]]
sequence_input = "ACGGAGCAAUAUUACGUACU"
group_label = "t"

[[record]]
sequence_input = "UAGUAGCAAUAUUACGCUUA"
group_label = "t"

[[record]]
sequence_input = "UAAAAGCAAUAUUACGUUCG"
group_label = "t"

[[record]]
sequence_input = "AAAAAGCAAUAUUACGUACA"
group_label = "t"

[[record]]
sequence_input = "CACUAGCAAUAUUACGAUUC"
group_label = "f"

[[record]]
sequence_input = "GAAGAGCAAUAUUACGCUCG"
group_label = "f"

[[record]]
sequence_input = "AGAUAGCAAUAUUACGUGGG"
group_label = "f"

[[record]]
sequence_input = "AGAUAGCAAUAUUACGGAUG"
group_label = "f"

[[record]]
sequence_input = "UGGAAGCAAUAUUACGAACA"
group_label = "t"

[[record]]
sequence_input = "UCAAAGCAAUAUUACGGAGU"
group_label = "f"

[[record]]
sequence_input = "UCCAAGCAAUAUUACGUGGU"
group_label = "f"

[[record]]
sequence_input = "UAGAAGCAAUAUUACGCAGG"
group_label = "f"


* * *

- assay-name: self-splicing fitness, log relative to wild type (ln ratio); higher = more splicing; Tetrahymena group I intron in knt gene, E. coli kanamycin selection, DiMSum; sequences stand for … in CUCUCU…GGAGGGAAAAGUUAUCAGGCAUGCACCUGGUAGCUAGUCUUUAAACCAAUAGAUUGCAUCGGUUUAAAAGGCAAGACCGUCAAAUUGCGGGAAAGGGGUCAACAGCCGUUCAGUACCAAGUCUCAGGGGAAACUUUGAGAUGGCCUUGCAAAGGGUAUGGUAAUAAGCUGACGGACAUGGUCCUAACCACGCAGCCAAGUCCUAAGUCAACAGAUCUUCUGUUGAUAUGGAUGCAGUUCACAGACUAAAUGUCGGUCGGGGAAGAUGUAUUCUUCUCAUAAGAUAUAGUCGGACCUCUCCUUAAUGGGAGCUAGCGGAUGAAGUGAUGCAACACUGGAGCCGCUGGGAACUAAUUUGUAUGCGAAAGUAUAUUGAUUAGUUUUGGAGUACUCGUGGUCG
- condition-notes: 30 °C
result-type: self-splicing fitness (ln)

[[record]]
sequence_input = "CAUUAGCAAUAUUACGCGGA"
result_type = "self-splicing fitness (ln)"
reading = -2.93

[[record]]
sequence_input = "AGCGAGCAAUAUUACGAUUU"
result_type = "self-splicing fitness (ln)"
reading = -1.4

[[record]]
sequence_input = "GGUCAGCAAUAUUACGCACU"
result_type = "self-splicing fitness (ln)"
reading = -2.12

[[record]]
sequence_input = "GGAAAGCAAUAUUACGACUC"
result_type = "self-splicing fitness (ln)"
reading = 0.0221

[[record]]
sequence_input = "GCUGAGCAAUAUUACGCAGU"
result_type = "self-splicing fitness (ln)"
reading = -4.98

[[record]]
sequence_input = "GAACAGCAAUAUUACGGUUU"
result_type = "self-splicing fitness (ln)"
reading = -3.41

[[record]]
sequence_input = "CAGUAGCAAUAUUACGCUCG"
result_type = "self-splicing fitness (ln)"
reading = -0.354

[[record]]
sequence_input = "ACCUAGCAAUAUUACGAAUA"
result_type = "self-splicing fitness (ln)"
reading = -2.75

[[record]]
sequence_input = "GACCAGCAAUAUUACGGCAA"
result_type = "self-splicing fitness (ln)"
reading = -0.359

[[record]]
sequence_input = "GGACAGCAAUAUUACGAUAA"
result_type = "self-splicing fitness (ln)"
reading = -1.81

[[record]]
sequence_input = "ACCAAGCAAUAUUACGGUCC"
result_type = "self-splicing fitness (ln)"
reading = -2.8

[[record]]
sequence_input = "ACUUAGCAAUAUUACGAGCC"
result_type = "self-splicing fitness (ln)"
reading = -2.49

[[record]]
sequence_input = "GUUAAGCAAUAUUACGAUGA"
result_type = "self-splicing fitness (ln)"
reading = -1.33

[[record]]
sequence_input = "UCUCAGCAAUAUUACGUAAU"
result_type = "self-splicing fitness (ln)"
reading = -3.43

[[record]]
sequence_input = "CCAGAGCAAUAUUACGAUGA"
result_type = "self-splicing fitness (ln)"
reading = -1.88

[[record]]
sequence_input = "GAUCAGCAAUAUUACGAUUC"
result_type = "self-splicing fitness (ln)"
reading = -3.05

[[record]]
sequence_input = "UGAUAGCAAUAUUACGUGCA"
result_type = "self-splicing fitness (ln)"
reading = -0.486

[[record]]
sequence_input = "CCCGAGCAAUAUUACGCAGU"
result_type = "self-splicing fitness (ln)"
reading = -2.82

[[record]]
sequence_input = "CUGAAGCAAUAUUACGAGGA"
result_type = "self-splicing fitness (ln)"
reading = -3.46

[[record]]
sequence_input = "GUGAAGCAAUAUUACGAAUU"
result_type = "self-splicing fitness (ln)"
reading = -0.957

[[record]]
sequence_input = "CAUGAGCAAUAUUACGUAGG"
result_type = "self-splicing fitness (ln)"
reading = -1.82

[[record]]
sequence_input = "CGCUAGCAAUAUUACGACCC"
result_type = "self-splicing fitness (ln)"
reading = -0.616

[[record]]
sequence_input = "AUCUAGCAAUAUUACGUACU"
result_type = "self-splicing fitness (ln)"
reading = -0.329

[[record]]
sequence_input = "AGACAGCAAUAUUACGAGGU"
result_type = "self-splicing fitness (ln)"
reading = -3.46

[[record]]
sequence_input = "AUCUAGCAAUAUUACGGGUG"
result_type = "self-splicing fitness (ln)"
reading = -1.93

[[record]]
sequence_input = "UCUGAGCAAUAUUACGUCAA"
result_type = "self-splicing fitness (ln)"
reading = -2.53

[[record]]
sequence_input = "AUAGAGCAAUAUUACGGGGG"
result_type = "self-splicing fitness (ln)"
reading = -3.2

[[record]]
sequence_input = "CCCAAGCAAUAUUACGACCA"
result_type = "self-splicing fitness (ln)"
reading = -4.66

[[record]]
sequence_input = "UUCUAGCAAUAUUACGAUAA"
result_type = "self-splicing fitness (ln)"
reading = -1.46

[[record]]
sequence_input = "AUUAAGCAAUAUUACGUUAC"
result_type = "self-splicing fitness (ln)"
reading = -2.99

[[record]]
sequence_input = "CAGGAGCAAUAUUACGGUCA"
result_type = "self-splicing fitness (ln)"
reading = -2.39

[[record]]
sequence_input = "GCUCAGCAAUAUUACGGCUA"
result_type = "self-splicing fitness (ln)"
reading = -0.707

[[record]]
sequence_input = "AUGCAGCAAUAUUACGUUCG"
result_type = "self-splicing fitness (ln)"
reading = -0.728

[[record]]
sequence_input = "UCGCAGCAAUAUUACGAAUU"
result_type = "self-splicing fitness (ln)"
reading = -4.07

